system: BT-549; experiment: NCI tumour cell line growth inhibition, 48 h
Counter-ions that a name gives are not always drawn. The source made the active and inactive calls. Cut-off read from the data, not from the text of the source: active = GI50 up to about 1.1 µM and inactive = higher. Residues, ends and D or L forms follow the SMILES beside them. *: point of attachment. Tfa = O=C(C(F)(F)F)*
Give measured GI50 for each item. Keep answers brief.

Field: example entries. Status: answers known.
compound: O=C1CS(=O)(=O)C(c2cccc(Oc3ccccc3)c2)N1c1cc(Cl)ccc1Cl (stereo not given)
study system: BT-549
assay metric: GI50
recorded result: 19 µM (inactive)
//
compound: CC(C)C(C/C=C1/CC(CO)(COC(=O)CC(C(C)C)C(C)C)OC1=O)C(C)C (stereo not given)
study system: BT-549
assay metric: GI50
recorded result: 15 µM (inactive)
//
compound: CC(C)(C)c1nc2c(o1)C(=O)c1ccccc1C2=O
study system: BT-549
assay metric: GI50
recorded result: 1.51 µM (inactive)
//
compound: O=C(O)CC(NC(=O)C(F)(F)F)C(=O)NC(Cc1ccc(O)cc1)C(=O)O (stereo not drawn) (Tfa-Asp-Tyr-OH; configuration not given here)
study system: BT-549
assay metric: GI50
recorded result: > 50 µM (inactive)

Now, please, on to the next compound.
GI50 for BT-549 with input CCN(CC)CCOC(c1cc(OC)ccc1OC)c1ccc2n1-c1ccccc1OC2 (stereo not given) equals 12.7 µM (inactive)

Reference source: ChEMBL document CHEMBL1201862
